Read-out: E-selectin (Homo sapiens)
protocol.summary: BSK_LPS_Eselectin: BioMAP Diversity Plus: LPS Assay for Eselectin Biomarker Activity (AID 2283077)
test.context: primary human HUVEC with PBMC; actives raise or lower the signal
Calls of active or inactive are those of the source. The calls were made as follows: active = hit-call score of the fitted dose curve at least 0.9, where 1 is the maximum; inactive = score below 0.9.
Your reply should match one of these outcome classes. true for active, false for inactive

Test call, this molecule: `CN(C)c1ccc(N=NS(=O)(=O)O)cc1`
false

Test call, this molecule: `CC(C)(O)c1coc(S(=O)(=O)NC(=O)Nc2c3c(cc4c2CCC4)CCC3)c1`
false

Test call, this molecule: `O=C(O)c1cccc(N(Cc2cccnc2)c2ccc(OC(F)F)c(OC(F)F)c2)c1`
true

Test call, this molecule: `CC(C)=CCC/C(C)=C/CO`
false

Test call, this molecule: `O=C(NS(=O)(=O)/C=C/c1ccccc1)c1ccc(F)cc1Cl`
false

Test call, this molecule: `Clc1nc(Cl)c(Cl)c(Cl)c1Cl`
true

Test call, this molecule: CC(C)=CCCC(C)CCO (configuration not stated)
false

====

Read-out: Cytochrome P450 3A4 (Homo sapiens)
protocol.summary: LTEA_HepaRG_CYP3A4: Life Technologies and Expression Analysis (LTEA) Assay for CYP3A4 using HepaRG (AID 2283487)
test.context: mRNA level, 48 h; actives raise or lower the signal
Active and inactive are the calls of the source. Rule for the calls: active = hit-call score of the fitted dose curve at least 0.9, where 1 is the maximum; inactive = score below 0.9.
Your reply should match one of these outcome classes. active, inactive

Test call, this compound: O=C1OC(=O)C2C3C=CC(C3)C12 (stereo not given)
inactive

Test call, this compound: `CC(=O)OC[C@H]1O[C@@](COC(C)=O)(O[C@H]2O[C@H](COC(C)=O)[C@@H](OC(C)=O)[C@H](OC(C)=O)[C@H]2OC(C)=O)[C@@H](OC(C)=O)[C@@H]1OC(C)=O`
inactive

Test call, this compound: `CCCN(C1CCN(C(=O)C2CCNCC2)CC1)[C@@H]1CCc2ccc(OC)cc2C1`
active

Test call, this compound: `CCOCCO`
inactive

Test call, this compound: `Cn1c(=O)cc(Oc2ccc(F)cc2F)c2cnc(NCC(C)(C)O)nc21`
active

====

protocol.summary: BSK_3C_TissueFactor: BioMAP Diversity Plus: 3C Assay for Tissue Factor Biomarker Activity (AID 2282997)
test.context: BioMAP 3C HUVEC, tissue factor biomarker readout; actives raise or lower the signal
The source made the active and inactive calls. The calls were made as follows: active = hit-call score of the fitted dose curve at least 0.9, where 1 is the maximum; inactive = score below 0.9.
Your reply should match one of these outcome classes. 1 (yes) = active, 0 (no) = inactive

Test call, this molecule: `Cc1[nH]cnc1C[C@H]1CCc2c(C)c3ccccc3n2C1=O`
0 (no)

Test call, this molecule: `O=C(OC[C@H]1O[C@@H](OC(=O)c2cc(O)c(O)c(OC(=O)c3cc(O)c(O)c(O)c3)c2)[C@H](OC(=O)c2cc(O)c(O)c(OC(=O)c3cc(O)c(O)c(O)c3)c2)[C@@H](OC(=O)c2cc(O)c(O)c(OC(=O)c3cc(O)c(O)c(O)c3)c2)[C@@H]1OC(=O)c1cc(O)c(O)c(OC(=O)c2cc(O)c(O)c(O)c2)c1)c1cc(O)c(O)c(OC(=O)c2cc(O)c(O)c(O)c2)c1`
1 (yes)

====

protocol.summary: ATG_NRF2_ARE_CIS: Attagene CIS-FACTORIAL HepG2 Assay for human Nuclear Factor Erythroid 2 Related Factor 2 (NFR2) response to Antioxidant Response Elements (ARE) (AID 2282992);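 as to AC50: reporter mRNA level measured by RT-PCR and capillary electrophoresis fluorescence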
test.context: HepG2 Attagene ARE/NRF2 reporter, transcription factor activity; actives raise or lower the signal
The source made the active and inactive calls. How the source made its calls: active means hit-call score of the fitted dose curve at least 0.9, where 1 is the maximum; inactive means score below 0.9.
measured.endpoint: AC50

>>> result("O=C(O)c1cccc(N(Cc2cccnc2)c2ccc(OC(F)F)c(OC(F)F)c2)c1")
"inactive"
>>> result("CNS(=O)(=O)c1cc(C(=O)N2CCC(CCN3C4CCC3CC(n3c(C)nc5ccccc53)C4)(c3cccc(F)c3)CC2)c(Cl)cc1F (configuration not stated)")
"2.71 µM (active)"
>>> result("COc1ccc(-n2nc(C(F)F)cc2-c2ccc(S(C)=O)cc2)cc1 (configuration not stated)")
"inactive"
>>> result("CC1=CC(=O)CC(C)(C)C1")
"inactive"
>>> result("CC(C)c1cccc(C(C)C)c1N1C(=O)c2ccc(O)cc2C1=O")
"25.2 µM (active)"
>>> result("COC(=O)c1c(Cl)c(Cl)c(C(=O)OC)c(Cl)c1Cl")
"inactive"

AC50 recorded for this compound, `CNCc1ccc(NC(=O)c2c[nH]c3c2C(=O)CCC3)cc1` , is 56.6 µM (active)

AC50 recorded for this compound, `NC(=O)NO` , is inactive

AC50 recorded for this compound, `CCCC(=O)OCC` , is inactive

AC50 recorded for this compound, O=c1[nH]c2ccc(S(=O)CCN3CCC(Cc4ccc(F)cc4)CC3)cc2o1 (configuration not stated) , is 39.4 µM (active)

AC50 recorded for this compound, O=c1n(CC2CO2)c(=O)n(CC2CO2)c(=O)n1CC1CO1 (configuration not stated) , is 7.56 µM (active)

AC50 recorded for this compound, `CC(C)=CCC/C(C)=C/CO` , is inactive

====

protocol.summary: ATG_BRE_CIS: Attagene CIS-FACTORIAL HepG2 Assay for human Bone Morphogenetic Protein (BMP) Response Element (BRE) (AID 2282933)
test.context: HepG2 BMP response element reporter, Attagene transcription factor profiling; actives raise or lower the signal
Active and inactive are the calls of the source. How the source made its calls: active means hit-call score of the fitted dose curve at least 0.9, where 1 is the maximum; inactive means score below 0.9.
Your reply should match one of these outcome classes. active, inactive

Test call, this compound: `CCCCCCCCO`
inactive

Test call, this compound: `O=C(OC[C@H]1O[C@@H](OC(=O)c2cc(O)c(O)c(OC(=O)c3cc(O)c(O)c(O)c3)c2)[C@H](OC(=O)c2cc(O)c(O)c(OC(=O)c3cc(O)c(O)c(O)c3)c2)[C@@H](OC(=O)c2cc(O)c(O)c(OC(=O)c3cc(O)c(O)c(O)c3)c2)[C@@H]1OC(=O)c1cc(O)c(O)c(OC(=O)c2cc(O)c(O)c(O)c2)c1)c1cc(O)c(O)c(OC(=O)c2cc(O)c(O)c(O)c2)c1`
inactive

Test call, this compound: `CCc1cc(SCc2sc(-c3ccc(C(F)(F)F)cc3)nc2CN2CCN(c3ccc(OC)cc3)CC2)ccc1OCC(=O)O`
active

Test call, this compound: `CCN(C(=O)c1cc(C)cc(OC[C@H](C)Nc2ccncc2)c1)C(C)C`
inactive

====

protocol.summary: BSK_hDFCGF_SRB: Viability Assessment in the BioMAP Diversity Plus: hDFCGF Assay (AID 2283061);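 also: cells exposed to compound for 24 h before the read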
test.context: primary human foreskin fibroblasts
The source made the active and inactive calls. The calls were made as follows: active = hit-call score of the fitted dose curve at least 0.9, where 1 is the maximum; inactive = score below 0.9.
Your reply should match one of these outcome classes. label 1 (active), label 0 (inactive)

Test call, this compound: `Cc1ccc(C)c(O)c1`
label 0

Test call, this compound: CNS(=O)(=O)c1cc(C(=O)N2CCC(CCN3C4CCC3CC(n3c(C)nc5ccccc53)C4)(c3cccc(F)c3)CC2)c(Cl)cc1F (stereo unspecified)
label 1

Test call, this compound: `CCCC(=O)OCC`
label 0

Test call, this compound: `COC(=O)CC(=O)OC`
label 0

Test call, this compound: `C[C@](N)(Cc1ccc(O)c(O)c1)C(=O)O`
label 0

Test call, this compound: `CCCCCCCCCCCCCCCO`
label 0

Test call, this compound: `CCn1nc(Cc2ccccc2)cc1C1CCN(C[C@H]2C[C@H](N(C)[C@@H](C(=O)O)C(C)C)C[C@@H]2c2cccc(F)c2)CC1`
label 0

Test call, this compound: `Oc1ccc2c(c1)-c1ccccc1C2`
label 0

Test call, this compound: `CN(C)c1ccc(N=NS(=O)(=O)O)cc1`
label 0

Test call, this compound: CC/C(=C\C(=N/O)C(N)=O)C(C)[N+](=O)[O-] (stereo unspecified)
label 0

Test call, this compound: `CC(C)CCCCCCCOC(=O)CCCCC(=O)OCCCCCCCC(C)C`
label 0

Test call, this compound: `O=C(O)c1cccc(N(Cc2cccnc2)c2ccc(OC(F)F)c(OC(F)F)c2)c1`
label 0

Test call, this compound: `Cc1ccc(S(=O)(=O)O)cc1C`
label 0

Test call, this compound: `Nc1ccc(Nc2ccccc2)cc1`
label 0

Test call, this compound: `COCCOCCOCCOC`
label 0

Test call, this compound: CCOC(=O)c1ccc(C2CCC(NC[C@H](O)COc3ccc(O)c(NS(C)(=O)=O)c3)CC2)cc1 (stereo partly specified)
label 1

Test call, this compound: `C1=CCCC=CCCC=CCC1`
label 0

Test call, this compound: `Cn1c(=O)cc(Oc2ccc(F)cc2F)c2cnc(NCC(C)(C)O)nc21`
label 0

Test call, this compound: `CN(C)c1ccc(Cc2ccc(N(C)C)cc2)cc1`
label 0

Test call, this compound: `CCOC(=O)CC(CC(=O)OCC)(OC(C)=O)C(=O)OCC`
label 0

Test call, this compound: `C=CC(=C)CCC=C(C)C`
label 0

Test call, this compound: `CC1(C)C(=O)N(Br)C(=O)N1Br`
label 0

Test call, this compound: `Cc1[nH]cnc1C[C@H]1CCc2c(C)c3ccccc3n2C1=O`
label 0

Test call, this compound: `Nc1nc2ncc(CNc3ccc(C(=O)N[C@@H](CCC(=O)O)C(=O)O)cc3)nc2c(=O)[nH]1`
label 0

Test call, this compound: `Cc1ccc(N)cc1O`
label 0

Test call, this compound: O=C(O)CC(O)C(=O)O (stereo unspecified)
label 0
